Biological target: Neuronal acetylcholine receptor; alpha4/beta2 (Homo sapiens, UniProt P17787+P43681)
Sequence (P17787 whole entry): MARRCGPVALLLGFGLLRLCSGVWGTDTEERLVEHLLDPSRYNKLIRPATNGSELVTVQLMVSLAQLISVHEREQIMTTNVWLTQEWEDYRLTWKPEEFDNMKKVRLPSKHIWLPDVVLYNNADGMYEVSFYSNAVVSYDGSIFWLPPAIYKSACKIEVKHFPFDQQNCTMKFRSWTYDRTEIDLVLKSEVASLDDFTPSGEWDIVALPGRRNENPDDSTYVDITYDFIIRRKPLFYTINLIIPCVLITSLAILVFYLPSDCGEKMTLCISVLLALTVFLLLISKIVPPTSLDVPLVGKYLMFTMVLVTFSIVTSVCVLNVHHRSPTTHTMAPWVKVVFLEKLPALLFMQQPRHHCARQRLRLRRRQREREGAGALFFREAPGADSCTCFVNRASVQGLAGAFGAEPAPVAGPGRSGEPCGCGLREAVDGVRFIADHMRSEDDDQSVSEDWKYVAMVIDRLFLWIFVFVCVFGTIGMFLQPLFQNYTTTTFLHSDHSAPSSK
Sequence (P43681 whole entry): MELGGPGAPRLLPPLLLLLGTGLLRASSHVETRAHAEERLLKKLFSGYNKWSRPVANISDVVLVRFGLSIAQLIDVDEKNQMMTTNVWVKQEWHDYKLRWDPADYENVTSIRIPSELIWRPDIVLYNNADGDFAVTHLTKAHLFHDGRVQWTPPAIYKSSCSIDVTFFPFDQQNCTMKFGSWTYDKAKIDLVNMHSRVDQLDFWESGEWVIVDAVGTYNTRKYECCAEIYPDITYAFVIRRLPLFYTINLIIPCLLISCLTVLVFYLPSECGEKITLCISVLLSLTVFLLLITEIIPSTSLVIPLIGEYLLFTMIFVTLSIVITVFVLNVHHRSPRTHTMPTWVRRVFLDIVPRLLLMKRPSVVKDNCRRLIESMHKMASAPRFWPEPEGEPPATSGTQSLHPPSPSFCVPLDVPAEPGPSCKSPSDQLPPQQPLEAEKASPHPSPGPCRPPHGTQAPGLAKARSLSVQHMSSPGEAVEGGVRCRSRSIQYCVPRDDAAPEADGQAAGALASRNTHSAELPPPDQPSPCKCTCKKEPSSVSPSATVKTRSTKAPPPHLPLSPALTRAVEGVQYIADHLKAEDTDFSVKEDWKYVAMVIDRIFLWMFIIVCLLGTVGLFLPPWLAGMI
Assay: Maximal agonist activity on human alpha-4-beta-2 ACHR expressed in HEK293 cells assessed as change in intracellular calcium concentration by FLIPR relative to nicotine
Assay type: functional, cell-based
Form field: Activity (one value per entry).
reported-endpoint: Activity

- N/C(=N/O)c1cncc(N2CC[C@@H]3CN[C@@H]3C2)c1: 194%
- Clc1cc(N2C[C@H]3CCNC[C@H]32)cnc1Cl: 127%
- c1cncc(N2C[C@H]3CCNC[C@H]32)c1: 84%

---

Molecular target: Neuronal acetylcholine receptor; alpha4/beta2 (Homo sapiens, UniProt P17787+P43681)
Test: Agonist activity at human alpha4beta2 ACHR expressed in HEK293 cells assessed as change in intracellular calcium concentration by FLIPR
reported-endpoint: EC50 (nM)

* Brc1cncc(N2CC[C@H]3CN[C@H]3C2)c1 | 150
* COc1ccc(N2CC[C@H]3CN[C@H]3C2)cn1 | 2200
* c1ncc(N2CC[C@@H]3CN[C@@H]3C2)cn1 | 4390
* Clc1ccc(N2CC[C@@H]3CN[C@@H]3C2)nn1 | 359
* Cc1cc(N2CC[C@@H]3CN[C@@H]3C2)cnc1Cl | 47
* Clc1ccc(N2C[C@@H]3CCNC[C@@H]32)cn1 | 37.4
* NC(=O)c1cc(N2C[C@H]3CCNC[C@H]32)cnc1Br | 340
* Clc1cc(N2CC[C@@H]3CN[C@@H]3C2)cnc1Cl | 82
* COc1cc(N2C[C@H]3CCNC[C@H]32)cnc1Br | 200
* COc1cncc(N2CC[C@H]3CN[C@H]3C2)c1 | 130
* c1ncc(N2CC[C@H]3CN[C@H]3C2)cn1 | 350
* N#Cc1cc(N2C[C@@H]3CCNC[C@@H]32)cnc1Br | 109
